Exercise: state measured MLR assay (EC50) for each of the binders provided.
target: human CD28 (human, UniProt P10747 19-220); assay: cell-based or functional assay
Kindly provide the numeric value in nM only, without the unit symbol.

Query string: Sample 1h-99-226 (other) VH: EVQLLESGGGLVQPGGSLRLSCAASGFTFKSANMSWVRQAPGKGLEWVSWIEDTGTQTFYADSVKGRFTISRDNSKNTLYLQMNSLRAEDTAVYYCAKSPFGPLYGFDYRGQGTLVTVSS — what was its MLR assay (EC50)?
Result string: 23

Query string: Sample 1h-99-267 (other) VH: EVQLLESGGGLVQPGGSLRLSCAASGFTFYRSNMSWVRQAPGKGLEWVSWIEASGVQTFYADSVKGRFTISRDNSKNTLYLQMNSLRAEDTAVYYCAKSPFGPLYGFDYRGQGTLVTVSS — what was its MLR assay (EC50)?
Result string: 4

Query string: Sample 1h-99-237 (other) VH: EVQLLESGGGLVQPGGSLRLSCAASGFTFDSANMSWARQAPGKGLEWVSWIEAPGVQTFYADSVRGRFTISRDNSKNTLYLQMNSLRAEDTAVYYCARSPFGPLYGFDYRGQGTLVTVSS — what was its MLR assay (EC50)?
Result string: 3

Query string: Sample 1h-239-840 (other) VL: DIQMTQSPSSLSASVGDRVTITCRASQSIYPFLEWYQQKPGKAPKLLIYFASRLASGVPSRFSGSGSGTDFTLTISSLQPEDFATYYCLQNVTNPATFSQGTKVEIKR — what was its MLR assay (EC50)?
Result string: 10

Query string: Sample 1h-99-230 (other) VH: EVQLLESGGGLVQPGGSLRLSCAASGFTFDSANMSWVRQAPGKGLEWVSWIESIGVQTFYADSVKGRFTISRDNSKNTLYLQMNSLRAEDTAVYYCAKSPFGPLYGFDYRGQGTLVTVSS — what was its MLR assay (EC50)?
Result string: 14

Query string: Sample 1h-239-871 (other) VL: DIQMTQSPSSLSASVGDRVTITCRASQSIYPFLEWYQQKPGKAPKLLIYFTSRLQSGVPSRFSGSGSGTDFTLTISSLQPEDFATYYCLQNVANPATFSQGTKVEIKR — what was its MLR assay (EC50)?
Result string: 3

Query string: Sample 1h-239-851 (other) VL: DIQMTQSPSSLSASVGDRVTITCRASRNIYPFLEWYQQKPGKAPKLLIYFTSRLQSGVPSRFSGSGSGTDFTLTISSLQPEDFATYYCLQNVTNPATFSQGTKVEIKR — what was its MLR assay (EC50)?
Result string: 4

Source of measurements: patent US20130109846A1
